Molecular target: A*11:01 (Homo sapiens, UniProt P04439, A114D/D185E/E176A/F33Y/L180Q/S129P/T187R)
Assay: ProImmune REVEAL binding assay
endpoint-label: REVEAL® score at 0 h

| residues | REVEAL® score at 0 h |
| --- | --- |
| GTYGLNTFT | 63.6 |
| GEAAAIFMT | 50.3 |

From here, focus on the item given below.
Look up REVEAL® score at 0 h for this sequence: VYNMMGKRE
62.5
